Values compiled from PubChem BioAssay AID504706.

assayNotes: qHTS assay for re-activators of p53 using a Luc reporter; further: nearly all actives have a fitted effect of over 45% in size
protocolConditions: H1299 p53-A138V BP100-luciferase reporter, luminescence, 24 h; series mostly up to 92.2 µM
In all, about 320,000 compounds went through this assay and about 200 (0.062%) were called active. About 6% were inconclusive and are not listed. The list comes from a sample in which actives are over-represented; it also holds close analogues and randomly drawn compounds.
quantityMeasured: outcome

In [3]: df
Out[3]:
                                   compound  quantitymeasured    result
0  Cc1nn(-c2ccccc2)c(C)c1/C=C/C(=O)OC(C)C(N)=O (stereo not drawn)           outcome  inactive
1     O=S(=O)(c1cccs1)N1CCN(CCOc2ccccc2)CC1           outcome  inactive
2  O=C(/C=C/c1ccc(Cl)c([N+](=O)[O-])c1)c1ccc(O)cc1           outcome  inactive
